Source: patent US20260183405A1

System: 786-O
Assay: Cytotoxicity in vitro in the presence and absence of elastase (MTT assay)
Assay type: cell-based
Details: 786-O cells; compound alone; 72 h incubation; read-out: IC50 without neutrophil elastase
pIC50: −log10 of the molar value. Starred links: 1 amine or outer side, 2 acyl side, 3 side chain; linkers in the order of their positions; H or OH if unused. Non-standard residues stand in square brackets, D forms with d. Residues, ends and D or L forms follow the SMILES beside them. Groups on a side chain read outwards from the residue. *: point of attachment. Camptothecin(7-Et) = CCc1c2c(nc3ccccc13)-c1cc3c(c(=O)n1C2)COC(=O)[C@@]3(CC)O*; EuK = O=C(O)CC[C@H](NC(=O)N[C@@H](CCCCN*)C(=O)O)C(=O)O; PEG3 = NCCOCCOCCOCCC(=O)O; CO = O=C([*:1])[*:2]
endpoint name: pIC50

Recorded pIC50, per entry:
{"molecule": "CCc1c2c(nc3ccccc13)-c1cc3c(c(=O)n1C2)COC(=O)[C@@]3(CC)OC(=O)[C@@H](NC(=O)[C@@H]1CCCN1C(=O)[C@H](CC(=O)[O-])NC(=O)CCOCCOCCOCCNC(=O)CCCC(=O)NCCCC[C@H](NC(=O)CCOCCOCCOCCNC(=O)CCC(=O)Nc1cccc2c(C(=O)NCC(=O)N3CC(F)(F)C[C@H]3C#N)ccnc12)C(=O)NCCCCCCCC(=O)[O-])C(C)C.[Na+].[Na+]", "pIC50": "< 6.00"}
{"molecule": "CCc1c2c(nc3ccccc13)-c1cc3c(c(=O)n1C2)COC(=O)[C@@]3(CC)OC(=O)[C@@H](NC(=O)[C@@H]1CCCN1C(=O)[C@H](CC(=O)O)NC(=O)CCOCCOCCOCCNC(=O)[C@H](CCCCNC(=O)CCOCCOCCOCCNC(=O)NCCCC[C@H](NC(=O)N[C@@H](CCC(=O)O)C(=O)O)C(=O)O)NC(=O)CCOCCOCCOCCNC(=O)NCCCC[C@H](NC(=O)N[C@@H](CCC(=O)O)C(=O)O)C(=O)O)C(C)C [Compound 7] ({EuK-CO-PEG3}-K([PEG3-CO-EuK])[PEG3]DPV-{Camptothecin(7-Et)})", "pIC50": "6.00 to 7.00"}

With those in mind, consider the next molecule.
Q: Give the value of pIC50 reported for the following: CCCNC(=O)Nc1cccc(S(=O)(=O)Nc2cccc([C@@H](CC(=O)O)NC(=O)Nc3ccc(NC(=O)NCCOCCOCCOCCC(=O)N[C@@H](CC(N)=O)C(=O)N4CCC[C@H]4C(=O)N[C@H](C(=O)NCCCN(C(=O)CO)[C@@H](c4cc(-c5cc(F)ccc5F)cn4Cc4ccccc4)C(C)(C)C)C(C)C)cc3)c2)c1 [Compound 17]
Result: < 6.00
